System: NCI-H23 lung
Experiment: NCI-60 one-dose screen, 48 h (100 = growth as untreated, 0 = no growth, -100 = all killed)
Conditions: 10 µM unless noted
About 83,000 compounds went through this panel and 20% of them were active in at least one assay; those are over-represented in the sample as a whole.
measuredParameter: growth (%)

                                   compound  numericreadout
0  O=C(NCc1cn(Cc2cccc(Oc3ccccc3)c2)nn1)c1cccnc1Nc1ccc(F)cc1            69.4
1  Cn1cnc2c(N3CCN(C(=O)OCc4ccc5c(Cl)cc(Cl)c(O)c5n4)CC3)nc(Cl)nc21            86.4
2  Cc1nc2c3c(ncn2n1)Oc1c(c(=O)[nH]c2ccccc12)C3c1ccc(Cl)cc1 (stereo not given)             103
3  CCC(C)/C(=C\C#N)NCCCN/C(=C/C#N)C(C)CC (stereo not given)            97.3
4  COc1ccc(-c2cc(-c3ccccc3)nc(SCCCC(=O)NO)n2)cc1OC           -2.44
5  COc1ccc(-c2nc3sccn3c2/C=C/C(=O)c2cc(F)cc(F)c2)cc1            76.3
6  CCO/C=N/C1=C(C#N)C(c2ccc(Cl)cc2)c2c(c3ccccc3n(C)c2=O)O1 (stereo not given)            80.3
7  O=C(N/N=C/C=C\c1ccccc1)C(=O)N/N=C/C=C/c1ccccc1             103
8  CCC1=CCC[C@@]2(C)CCC[C@@]3(C)CCCC(C)(C)[C@]1([O-])[O+]32            99.7
9   CC(C)(C)N1CCC1C(N)=O (stereo not given)              86

###

System: OVCAR-5 ovarian
Test: NCI-60 one-dose screen, 48 h
Conditions: 10 µM unless noted
This is part of a sample that, as a whole, favours compounds with a hit. Of some 83,000 tested, about 20% had one in any assay. Calls of active or inactive are those of the source. How the source made its calls: active means growth percent below 10; inactive means the rest.
Labels: 1 for active, -1 for inactive

molecule	groupLabel
COc1ccc(-c2nc3sc(-c4cc(OC)c(OC)c(OC)c4)nn3c2/C=C2/C(=O)Nc3ccc(F)cc32)cc1	1
CC1CCC(C)N(C)C1 (stereo not drawn)	-1
COc1ccc(C2=CC(c3cc(OC)c(OC)c(OC)c3)NC(=O)N2)cc1OC (stereo not drawn)	-1
Cc1cc(N/N=C/c2nc(-c3ccc(Br)cc3)oc2C)c2cc(Br)ccc2n1	-1
COc1cc(Cn2cc3c(c2)-c2oncc2CC3)cc(OC)c1OC	-1
O=C(CCl)N(C1CCCCC1)C1CCCCC1	-1
CCO/C=N/C1=C(C#N)C(c2ccc(Cl)cc2)c2c(c3ccc(C)cc3[nH]c2=O)O1 (stereo not drawn)	-1
COc1ccc(Nc2[nH]n3c(=O)cc(C)nc3c2C(N)=O)c(OC)c1	-1
O=C1/C(=C/c2ccccc2)CN(C(=O)CCN2CCC(=NO)CC2)C/C1=C\c1ccccc1	1
COc1cc([N+](=O)[O-])c2ncccc2c1O	-1
ClC(Cl)c1nc(-c2ccccc2)nc2cc(-c3ccccc3)nn12	-1
Cc1c(C(=O)/C=C/c2csc3ccccc23)[n+](=O)c2ccccc2n1[O-]	-1
Cc1cc(C)n(-c2nnc3n2N=C(c2ccc(-c4ccccc4)cc2)CS3)n1	-1
O=[N+]([O-])c1cc(Cl)c2[nH]c3c(Cl)cc([N+](=O)[O-])cc3c2c1	1
CCN1CCN(c2nc(NNC(=O)c3ccccc3)nc(N3CCN(C(c4ccccc4)c4ccccc4)CC3)n2)CC1	-1
C=C1CCC2C3(C)COC(C)(C)OC3CCC2(C)C1C/C=C1/C(=O)OCC1Oc1ccccc1OC (stereo not drawn)	-1
O=c1[nH]c2ccc(Br)cc2c2c1C(c1ccc(Cl)cc1)c1c(ncn3nc(-c4ccco4)nc13)O2 (stereo not drawn)	-1
O=C(Nc1cccc(-n2cc(-c3ccncc3)c(-c3ccc(Cl)c(O)c3)n2)c1)c1ccc(N2CCOCC2)c(C(F)(F)F)c1	-1
Cc1ccc2[nH]c(=O)c3c(c2c1)Oc1ncn2nc(-c4ccco4)nc2c1C3c1ccc(Cl)cc1 (stereo not drawn)	-1
CCN(CC)c1ccc(CNc2ccnc3ccccc23)cc1	-1
CCN(CC)c1ccc(N=O)cc1	-1
CN1C(=O)N(C)C2C1NN=c1s/c(=C\C=C\c3ccccc3)c(=O)n12 (stereo not drawn)	-1
COc1c2occc2c(OC)c2c(=O)c(-c3cc(-c4ccc(F)cc4)c(C#N)c(N)n3)c(C)oc12	-1
O=[N+]([O-])c1ccc(-c2cn(-c3ccccc3)c(-c3ccccc3)n2)cc1	-1
Cc1nn(-c2ccc(Cl)cc2)c2ncnc(N/N=C/c3cccc([N+](=O)[O-])c3)c12	-1
CCN(CC)c1ccc2[nH]c3c(C(N)=O)cc(=O)c(=O)c=3oc2c1	-1
COc1ccc(C(=O)NC(=O)Nc2cc3c(cc2F)/C(=C/c2[nH]c(C)c(CCC(=O)O)c2C)C(=O)N3)c(F)c1	-1
O=C(NS(=O)(=O)c1ccccc1)n1cc(-c2ccncc2)c(-c2ccc(Cl)c(O)c2)n1	-1
C=C1C(=O)O[C@H]2[C@H]1CC/C(Cn1cc(CNC(=O)Cc3cn(C(=O)c4ccc(Cl)cc4)c4ccc(OC)cc34)nn1)=C\CC[C@@]1(C)O[C@@H]21	-1
Cn1c(=O)c2[nH]c(C3CC=CCC3)nc2n(C)c1=O (stereo not drawn)	-1
O=C(NNC(=O)N1c2ccccc2C=Cc2ccccc21)c1ccc2ccccc2c1	-1
Cc1ccc(S(=O)(=O)c2nc(-c3ccccc3)oc2S(C)(=O)=O)cc1	-1
COc1ccc(N2CCN(Cc3cc(C(=O)/C=C/c4c[nH]c5ccccc45)ccc3O)CC2)cc1	-1
Cn1c(=O)cc(NC(=O)CN2CCN(c3cc4c(cc3F)c(=O)c(C(=O)O)cn4C3CC3)CC2)[nH]c1=O	-1
CC1(C)C(=O)/C(=C\c2ccc(C(F)(F)F)cc2)C[C@]2(C)[C@H]3CC[C@@H]4[C@H]5[C@H](C(=O)/C=C/c6ccc(C(F)(F)F)cc6)CC[C@]5(CO)CC[C@@]4(C)[C@]3(C)CC[C@@H]12	-1
Brc1cccc(-c2cc(-c3ccc4c(c3)OCCCO4)[nH]n2)c1	-1
COc1cccc(-c2nc3sccn3c2-c2ccnc(NCCCNS(=O)(=O)c3ccc(C(F)(F)F)cc3)c2)c1	-1
NC(=S)N/N=C(/CCN1CCCC1)CC(C1=C(O)C2=CCCCC2OC1=O)c1ccccc1 (stereo not drawn)	-1

###

Test system: SF-539 CNS
Test: NCI-60 one-dose screen, 48 h (100 = growth as untreated, 0 = no growth, -100 = all killed)
Settings: 10 µM unless noted
Compounds without any hit were thinned out: in the full panel of roughly 83,000, 20% have a hit.
Strictly below 90% in growth: Y. Otherwise: N.

In [3]: df
Out[3]:
                                   compound  grouplabel
0  COc1ccc(/C=N\NC(=O)CN2CCN(c3cc4c(cc3F)c(=O)c(C(=O)N/N=C/c3ccc(OC)c(OC)c3)cn4C3CC3)CC2)cc1OC           Y
1     COc1ccc(C(=O)c2cc(OC)c3c(c2)OCO3)cc1O           Y
2                CCCCCCN1CSC(=S)N(CCCCCC)C1           N
3  Cc1ccc(-c2nc(C(Cl)Cl)n3nc(-c4ccccc4)cc3n2)cc1           Y
4  CCCCCc1cc[n+](CC(=O)c2ccc([N+](=O)[O-])cc2)cc1           N
5                       CNC(=S)NNC(=O)C1CC1           N
6  CN(C)c1ncnc2c1ccn2C1OC(CO)C(O)C1O (stereo unspecified)           Y
7                 CCN(CC)CCOc1ccc(Cl)c(C)c1           N
8              O=C(O)COc1ccc(-c2cssc2=S)cc1           N
9  O=C1/C(=C/c2ccccc2)CN(C(=O)CCN2CCC(=NO)CC2)C/C1=C\c1ccccc1           Y

###

Test system: MCF7 breast
Experiment: NCI-60 one-dose screen, 48 h (100 = growth as untreated, 0 = no growth, -100 = all killed)
Conditions: 10 µM unless noted
The panel holds about 83,000 compounds, 20% with a hit somewhere; the sample as a whole holds those more often.
Strictly below 50% in growth: label 1. Otherwise: label 0.

>>> df
                                   compound  grouplabel
0  COc1ccc(-n2c(-c3ccccc3)c(-c3ccccc3)c3c(SCC(=O)N/N=C/c4ccc(Cl)cc4)ncnc32)cc1     label 0
1  Cc1ccc(S(=O)(=O)NCCNc2cc(-c3cn(C(C)(C)C)nc3-c3cccc(O)c3)ccn2)cc1     label 1
2     COc1ccc(C(=O)c2cc(OC)c3c(c2)OCO3)cc1O     label 1
3  Cc1nc2ncccc2nc1Nc1ccc(S(=O)(=O)Nc2ccccn2)cc1     label 0
4  O=c1[nH]c(NCc2ccccc2)nc2nc(Nc3ccc(NC(=S)Nc4ccccc4)cc3)nc(-c3ccc(O)cc3O)c12     label 0
5  CCC(=O)Oc1ccc(/C(=C(/C)Cc2cccc(OC)c2)c2ccc(OCCN(C)C)cc2)cc1     label 1
6  COc1ccc(-c2ccc(C)n2-c2ccc(-c3nc4ccccc4s3)cc2)cc1     label 0
7  C=C(C)[C@@H]1C[C@@H]2Cc3ccc(Cl)c(C)c3N1O2     label 0
8  C=C1CCC2C(C)(CO)C(O)CCC2(C)C1C/C=C1/C(=O)OCC1Oc1ccccc1C (centres undefined)     label 1
